tgt: T1, TIAM2, Q8IVF5
T1 sequence (Q8IVF5 885-986, limits assumed, looked up): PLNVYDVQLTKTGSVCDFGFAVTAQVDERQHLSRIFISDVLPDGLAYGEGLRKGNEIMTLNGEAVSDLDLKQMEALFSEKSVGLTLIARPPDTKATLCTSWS
protocol.details: holdup assay
Design: key: below the threshold = too weak to quantify, mostly under pKd 3.1 to 4
assay.setup: plain residues with an end cap or a label only (N-terminal biotin on a linker: ttds)
measurement.label: pKd

These solved cases illustrate the format of a correct answer.
* KKYVDAETSL [SLC4A7, Q9Y6M7] | below the threshold
* DKDPHSETAL [TMIGD1, Q6UXZ0] | below the threshold
* RLQRRRETQV [HPV18-E6, P06463] | below the threshold
* SKPTRRETEV [HPV35-E6, P27228] | below the threshold

We next turn to a different binder, shown below.
So for EMDRRPATVV [PLCB4, Q15147] , the logged pKd turned out to be below the threshold
